Values were extracted from paper PMC5814057.

Tested target: TLR4/MD-2 complex (Homo sapiens, UniProt O00206+Q9Y6Y9)
Sequence (O00206 24-631 limits assumed): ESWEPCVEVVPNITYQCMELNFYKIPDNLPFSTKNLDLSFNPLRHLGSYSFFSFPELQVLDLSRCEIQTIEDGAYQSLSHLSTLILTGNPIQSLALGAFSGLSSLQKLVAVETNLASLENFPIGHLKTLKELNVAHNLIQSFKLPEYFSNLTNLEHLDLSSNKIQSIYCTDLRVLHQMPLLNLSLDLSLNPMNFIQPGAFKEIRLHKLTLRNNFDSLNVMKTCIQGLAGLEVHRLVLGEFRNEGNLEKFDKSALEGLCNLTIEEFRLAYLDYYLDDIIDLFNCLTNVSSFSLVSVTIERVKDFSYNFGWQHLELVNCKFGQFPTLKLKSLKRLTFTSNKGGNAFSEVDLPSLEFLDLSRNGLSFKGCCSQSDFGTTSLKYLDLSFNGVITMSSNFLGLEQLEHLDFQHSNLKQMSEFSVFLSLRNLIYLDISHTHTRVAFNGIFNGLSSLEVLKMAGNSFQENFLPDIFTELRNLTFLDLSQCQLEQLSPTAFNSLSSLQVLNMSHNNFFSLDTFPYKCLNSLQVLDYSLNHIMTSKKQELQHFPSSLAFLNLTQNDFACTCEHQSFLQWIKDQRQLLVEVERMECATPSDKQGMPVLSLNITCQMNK
Sequence (Q9Y6Y9 17-160 limits assumed): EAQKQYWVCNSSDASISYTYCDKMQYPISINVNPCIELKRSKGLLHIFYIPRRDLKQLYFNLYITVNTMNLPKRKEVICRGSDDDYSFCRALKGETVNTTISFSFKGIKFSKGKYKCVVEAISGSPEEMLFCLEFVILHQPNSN
Assay details: SPR direct binding to immobilized TLR4/MD-2 complex
Assay context: TLR4/MD-2 complex immobilized
Property label: pKd
Note on units: pKd is unitless, being -log10 of a concentration expressed in mol/L.

query: Reported pKd, compound "Nc1nc(=O)c2nc(CNc3ccc(C(=O)N[C@@H](CCC(=O)O)C(=O)O)cc3)cnc2[nH]1" : ____
result: 6.27
